Source: ChEMBL document CHEMBL2163250

For each record, write down the corresponding log10 of Ki.
# Study target: Protease (Human immunodeficiency virus 1)
# Sequence (Q9YQ12 whole entry): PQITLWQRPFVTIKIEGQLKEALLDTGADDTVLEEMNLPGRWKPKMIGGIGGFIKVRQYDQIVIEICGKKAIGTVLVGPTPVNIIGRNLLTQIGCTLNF
# Procedure details: Inhibition of HIV1 protease dimerization expressed in Escherichia coli Rosetta(DE3) using DABCYL-gamma-abu-Ser-Gln-Asn-Tyr-Pro-Ile-Val-Gln-EDANS as substrate by Zhang-Poorman kinetic analysis
Response schema: value (number) is log10 of Ki in units of nM.

Kindly note the recorded log10 of Ki for `CC(C)[C@H](NC(=O)NNC(=O)NNC(=O)CCCOc1ccc2ccc(OCCCC(=O)NNC(=O)NNC(=O)N[C@H](C(N)=O)C(C)C)cc2c1)C(N)=O` , which is 2.85

Kindly note the recorded log10 of Ki for `CC(C)[C@H](NC(=O)CCCOc1ccc2ccc(OCCCC(=O)N[C@H](C(=O)NNC(=O)[C@@H](NC(=O)OC(C)(C)C)C(C)C)C(C)C)cc2c1)C(=O)NNC(=O)[C@@H](NC(=O)OC(C)(C)C)C(C)C` , which is 1.70

Kindly note the recorded log10 of Ki for `COC(=O)[C@@H](NC(=O)[C@H](CC(C)C)NC(=O)[C@@H](NC(=O)CCCOc1ccc2ccc(OCCCC(=O)N[C@H](C(=O)N[C@@H](CC(C)C)C(=O)N[C@H](C(=O)OC)C(C)C)C(C)C)cc2c1)C(C)C)C(C)C` , which is 2.75

Kindly note the recorded log10 of Ki for `COC(=O)[C@@H](NC(=O)[C@H](CC(C)C)NC(=O)[C@@H](NC(=O)CCCOc1ccc2ccc(OCCCC(=O)NNC(=O)NNC(=O)N[C@H](C(N)=O)C(C)C)cc2c1)C(C)C)C(C)C` , which is 2.18

Kindly note the recorded log10 of Ki for `COC(=O)[C@@H](NC(=O)[C@H](CC(C)C)NC(=O)[C@@H](NC(=O)CCCOc1ccc2ccc(OCCCC(=O)N[C@H](C(=O)NNC(=O)[C@@H](NC(=O)OC(C)(C)C)C(C)C)C(C)C)cc2c1)C(C)C)C(C)C` , which is 1.95
